# EXPERIMENTAL SYSTEM: GlcNAc(b1-2)Man(a1-3)[GlcNAc(b1-2)Man(a1-6)]Man(b1-4)GlcNAc(b1-4)[Fuc(a1-6)]GlcNAc
# ASSAY NAME: glycan array binding signal (z-score within array); higher = stronger binding
# SETUP CONDITIONS: glycan notation: IUPAC condensed, linker removed
About 410 targets per protein were measured; listed, in parts, are those with the strongest signals and a random draw of the rest.
Catalogue of glycan array binding signal (z-score) values
QUANTITY KIND: glycan array binding signal (z-score)

BINDER	ASSAY VALUE
F17aG (Escherichia coli), Q99003 (protein) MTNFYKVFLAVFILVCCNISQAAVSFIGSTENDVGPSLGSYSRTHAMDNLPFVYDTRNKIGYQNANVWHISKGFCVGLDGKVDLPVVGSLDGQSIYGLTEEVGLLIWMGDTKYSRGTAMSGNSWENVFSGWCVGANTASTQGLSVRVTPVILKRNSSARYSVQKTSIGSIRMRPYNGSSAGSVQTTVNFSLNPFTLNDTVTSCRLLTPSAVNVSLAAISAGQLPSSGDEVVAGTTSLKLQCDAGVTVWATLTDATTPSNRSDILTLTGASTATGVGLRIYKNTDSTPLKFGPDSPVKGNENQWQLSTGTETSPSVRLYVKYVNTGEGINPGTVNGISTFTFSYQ	-0.17
BSR4 (Toxoplasma gondii), Q95NL6 (protein) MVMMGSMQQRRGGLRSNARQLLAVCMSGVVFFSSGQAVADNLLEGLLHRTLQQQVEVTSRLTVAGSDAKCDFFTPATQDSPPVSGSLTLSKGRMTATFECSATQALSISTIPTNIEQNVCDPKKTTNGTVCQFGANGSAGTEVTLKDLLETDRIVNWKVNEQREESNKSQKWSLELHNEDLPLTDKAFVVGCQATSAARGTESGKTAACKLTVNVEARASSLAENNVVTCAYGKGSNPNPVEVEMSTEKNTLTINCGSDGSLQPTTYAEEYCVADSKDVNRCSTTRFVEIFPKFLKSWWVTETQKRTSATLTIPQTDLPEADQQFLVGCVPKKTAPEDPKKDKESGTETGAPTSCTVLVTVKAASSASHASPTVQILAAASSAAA	7.79

Source listed as the supplement of paper PMC8728848.
